targetEntity: T1, ROR1 naturally expressed on human tumor cell lines (A549, Jeko-1, SW620, PA-1) (human, UniProt Q01973 30-937)
T1 construct: whole, on cells; also called cells expressing ROR1
T1 sequence (Q01973 30-937): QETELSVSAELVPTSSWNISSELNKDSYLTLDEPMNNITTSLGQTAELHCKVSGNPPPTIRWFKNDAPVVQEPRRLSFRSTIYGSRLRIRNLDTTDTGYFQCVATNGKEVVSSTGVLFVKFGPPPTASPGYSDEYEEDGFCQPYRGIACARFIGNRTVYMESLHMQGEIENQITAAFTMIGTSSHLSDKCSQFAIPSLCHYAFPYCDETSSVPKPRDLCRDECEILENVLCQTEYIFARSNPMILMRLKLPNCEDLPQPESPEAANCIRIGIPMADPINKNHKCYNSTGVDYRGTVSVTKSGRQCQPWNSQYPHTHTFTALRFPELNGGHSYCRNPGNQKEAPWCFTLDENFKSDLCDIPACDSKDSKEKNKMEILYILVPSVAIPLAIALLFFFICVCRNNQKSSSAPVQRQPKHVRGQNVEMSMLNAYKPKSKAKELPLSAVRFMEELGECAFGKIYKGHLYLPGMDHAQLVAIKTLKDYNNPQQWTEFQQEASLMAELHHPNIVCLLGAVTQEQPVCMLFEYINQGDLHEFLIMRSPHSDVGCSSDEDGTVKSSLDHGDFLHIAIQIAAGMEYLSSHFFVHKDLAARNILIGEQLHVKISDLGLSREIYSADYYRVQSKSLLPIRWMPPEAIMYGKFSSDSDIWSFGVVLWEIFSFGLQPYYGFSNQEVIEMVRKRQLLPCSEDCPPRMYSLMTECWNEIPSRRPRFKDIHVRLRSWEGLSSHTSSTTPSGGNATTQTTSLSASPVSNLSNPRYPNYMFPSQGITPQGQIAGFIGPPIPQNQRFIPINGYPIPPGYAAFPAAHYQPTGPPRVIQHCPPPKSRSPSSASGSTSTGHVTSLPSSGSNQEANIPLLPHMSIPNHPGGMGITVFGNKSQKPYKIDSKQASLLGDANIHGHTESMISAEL
methodNotes: FACS on PA-1 cells naturally expressing ROR1
measuredParameter: Top (MFI)
Give bare numbers, in MFI.

hz137G11D10-3.2 (antibody, human IgG1, kappa, V domains shown, Humanized, human IgG1/kappa) VH: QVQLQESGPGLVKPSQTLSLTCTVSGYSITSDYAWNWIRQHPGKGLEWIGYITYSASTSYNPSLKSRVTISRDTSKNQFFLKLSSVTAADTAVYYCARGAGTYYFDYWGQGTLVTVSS VL: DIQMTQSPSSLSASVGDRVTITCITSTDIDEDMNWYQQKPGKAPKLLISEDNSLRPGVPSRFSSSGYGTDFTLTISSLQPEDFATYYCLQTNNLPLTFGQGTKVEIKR | 225000
hz137G11D10-1.2 (antibody, human IgG1, kappa, V domains shown, Humanized, human IgG1/kappa) VH: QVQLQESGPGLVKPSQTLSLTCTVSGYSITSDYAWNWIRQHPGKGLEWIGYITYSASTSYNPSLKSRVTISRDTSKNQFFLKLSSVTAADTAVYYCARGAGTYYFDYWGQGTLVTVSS VL: ETTLTQSPAFMSATPGDKVNISCITSTDIDEDMNWYQQKPGEAAKLIISEDNSLRPGIPPRFSSSGYGTDFTLTINNIESEDAAYYFCLQTNNLPLTFGQGTKVEIKR | 248000

Alright, here's another binder for you.
Give the reported Top (MFI) for this binder. hz137G11D10-1.1 (antibody, human IgG1, kappa, V domains shown, Humanized, human IgG1/kappa) VH: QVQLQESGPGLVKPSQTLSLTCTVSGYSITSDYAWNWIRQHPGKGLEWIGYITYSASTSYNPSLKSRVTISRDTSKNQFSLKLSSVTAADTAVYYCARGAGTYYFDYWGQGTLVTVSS VL: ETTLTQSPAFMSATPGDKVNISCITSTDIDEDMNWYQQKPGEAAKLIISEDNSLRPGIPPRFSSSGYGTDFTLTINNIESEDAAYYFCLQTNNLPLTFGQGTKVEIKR
244000

This collection of values is drawn from patent EP4772535A1.
